test.summary: Pharmacokinetics of JHG components in pulmonary fibrosis (PF) model rats after intragastric administration of JHGs (plasma, Orbitrap Fusion MS)
Assay type: in vivo, Sprague Dawley (SD) rats
condition.notes: male, Sprague-Dawley, rat, plasma, po, 11.41 g/kg/day; PF model rats, JHGs medium dose 11.41 g/kg/d; read-out: MRT(0-∞)
measured.metric: MRT inf (h)
Express it in h; write the number only.

{"compound": "COc1ccc(C(C)=O)c(O)c1", "measured.metric": "MRT inf", "result.value": 26.9}

Query: Please give the measured MRT inf for this compound: CC1=C2CC3C(CC(=O)C4CC(O)CCC43C)C2CCC12OC1CC(C)CNC1C2C (stereo not drawn)
Response: 11.4

Query: Please give the measured MRT inf for this compound: COc1ccc(-c2cc(=O)c3c(OC)c(OC)c(OC)c(OC)c3o2)cc1OC
Response: 41.8
